B1: tRNA (parent)
chain: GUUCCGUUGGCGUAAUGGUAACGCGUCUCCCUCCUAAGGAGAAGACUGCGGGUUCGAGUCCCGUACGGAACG

variants of: B1; assay: yeast fitness relative to wild type (ratio to wild type); higher = fitter; tRNA-Arg(CCU), competitive growth, 37 C, YPD
This sample holds only a part of the variants without activity.
Listed below: yeast fitness values for each entry.

sequence.content: GUUCCGUUCGCGUAAUGGUAACGCGUCUCCCUCAUAAGGAGAAGAAUGCGGGUUCAAGUCCCGUACGGAACG [G9C C34A C46A G56A]
assay.endpoint: yeast fitness
measured.result: ≤ 0.5
//
sequence.content: GUUCCGUUGGCGUAAUGGUAACGCGUCUCCCUCCUAAGCAGAAGACUGCCGGUUCGAGUCGCGUACGGAACG [G39C G50C C61G]
assay.endpoint: yeast fitness
measured.result: ≤ 0.5
//
sequence.content: GUUCUGUUGGCGUAAUGGUAACGCGUCUUCCUCCUAACGAGAAGACUGCGGGUUCGAGUCCCGUACGGAACG [C5U C29U G38C]
assay.endpoint: yeast fitness
measured.result: ≤ 0.5
//
sequence.content: GUUCGGUUGGCGUAAUGGUAACGCGUCUCCCUCCUAAGGAGAAGACUGCGGGUUCGAGUCCAGUACGGAACG [C5G C62A]
assay.endpoint: yeast fitness
measured.result: 0.697
//
sequence.content: GUUCCGUUGGCGUAACGGUAAAGCGUCUCCCUCCUAAGGGGAAGACUGCGGGUUCGAGUACCGUACGGAACG [U16C C22A A40G C60A]
assay.endpoint: yeast fitness
measured.result: ≤ 0.5

Query :: I'd like to know its yeast fitness. The variant in question is GUUCCGUUGGCGUAAUGGCAACGCGUCUGCCUCCUAAGGAGAAGACUGCGGGUUCGAGUCCCGUACGGAACG [U19C C29G]
Result :: 0.578

Query :: Input GUUCAGUUGGUGUAAUGGUAACGCGUCUCCCUCCUAAGGAGAAGACUGUGGGUUCGAGUCCCGUACGGAACG [C5A C11U C49U]
Result :: ≤ 0.5

Query :: Input GUUCCGUUGGCGAAAUGGUAACGCGUCUGCCUCCUAAGGAGAGGACUGCGGGUUCGAGUCCCGUACAGAACG [U13A C29G A43G G67A]
Result :: ≤ 0.5

Query :: Input GUUCCGAUGACGUAUUGGUAACGCGUCUCCCUCCUAAGGAGAAGACUGCGGGUUCGAGUCCCGUACGGAACG [U7A G10A A15U]
Result :: 0.568

Query :: Input GUUCCGUUCGCGUAAUGGUAACGCGGCUCCCUCCUAAGGAGAAGACUGCGGGUUCGAGUCCCGUACGGAACG [G9C U26G]
Result :: 0.684

Query :: Input GAUCCGAUGGCGUAUUGGUAACGCGUCUCCCUCCUAAGGAGAAGACUGCGGGUUCAAGUCCCGUACGGAACG [U2A U7A A15U G56A]
Result :: ≤ 0.5
